Test system: NCI-H23
Assay: NCI tumour cell line growth inhibition, 48 h
Activity calls are given as the source filed them. Rule as the data show it: active = GI50 up to about 1.1 µM and inactive = higher.
Outcome field: choose from t (active), f (inactive)

In: Recorded call for CN(C)c1ccc(/C=C(\NC(=O)c2ccccc2)C(=O)NC(CC(=O)O)C(=O)O)cc1 (configuration not stated) ?
Out: f

In: Try the compound `CCCCCNC(=O)c1c(O)[nH]c(=S)[nH]c1=O`
Out: f

In: Try the compound `O=C1CCN(CCC(F)(F)C(F)(F)C(F)(F)C(F)(F)C(F)(F)C(F)(F)F)C(=S)N1CCC(F)(F)C(F)(F)C(F)(F)C(F)(F)C(F)(F)C(F)(F)F`
Out: f

In: Try the compound `O=C(Nc1cccc(C(F)(F)F)c1)O/N=C(/Cl)CCl`
Out: f

In: Try the compound Cc1ccc(C(=O)Nc2ccc(S(=O)(=O)O)c3cc(S(=O)(=O)O)cc(S(=O)(=O)O)c23)cc1NC(=O)c1cccc(NC(=O)Nc2cccc(C(=O)Nc3cc(C(=O)Nc4ccc(S(=O)(=O)O)c5cc(S(=O)(=O)O)cc(S(=O)(=O)O)c45)ccc3C)c2)c1 [SURAMIN]
Out: f

In: Try the compound `O=C(O)CS(=O)(=O)C(c1ccccc1)c1ccccc1`
Out: f

In: Try the compound CC1=CC(=O)C[C@]2(C)[C@@H](O)CC(C(C)CO)C[C@@H]12 (some centres not stated)
Out: f

In: Try the compound `CC1(C)N=C(N)N=C(N)N1CCCCc1ccccc1`
Out: t

In: Try the compound CC(=O)C(/N=N\C1CCC(S(=O)(=O)NB2N=CS2)CC1)C(=O)Nc1ccccc1C (configuration not stated)
Out: f

In: Try the compound COc1cc([C@H]2Oc3c(OC)cc(CCCO)cc3[C@@H]2CO)ccc1O [DIHYDRODEHYDRODICONIFERY ALCOHOL]
Out: f

In: Try the compound O=C(O)c1c2c(cc3c1CC1(Cc4ccccc4C1=O)C3)CCC2 (configuration not stated)
Out: f

In: Try the compound `O=C(CSc1nnc(-c2ccc(/N=C\c3ccc(Cl)cc3)cc2)o1)Nc1ccccc1`
Out: f

In: Try the compound `C[C@H]1C(=O)O[C@@H]2CCN3CC=C(COC(=O)[C@](C)(O)[C@@]1(C)O)[C@H]23`
Out: f

In: Try the compound COC1CC(OC2C(C)OC(OC3C(C)OC(OC4C(C)OC(O[C@H]5CC[C@@]6(C)C(=CC[C@]7(O)[C@@H]6C[C@@H](OC(C)=O)[C@@]6(C)[C@]7(O)CC[C@@]6(O)C(C)=O)C5)CC4OC)CC3OC)CC2OC)OC(C)C1O (some centres not stated)
Out: f

In: Try the compound CC(=O)Oc1ccc(C2SCc3nc4ccccc4n32)cc1 (configuration not stated)
Out: f

In: Try the compound `O=C(O)c1ccc(Nc2cnc3cc(C(F)(F)F)ccc3n2)cc1`
Out: f

In: Try the compound `CN1CNc2nc(N)n(C)c(=O)c2C1`
Out: f
